Tested on: cellular pERK in Kuramochi (WT KRAS) cell-line
Test method notes: Cell based pERK assay (HTRF), Kuramochi
Measurement setup: Kuramochi (WT KRAS) cells, 2 hours incubation
Property measured: EC50

The reported cellular pERK in Kuramochi (WT KRAS) cell-line EC50 of C#Cc1c(F)ccc2cc(O)cc(-c3nc4c5c(nc(OC[C@@]67CCCN6C[C@H](F)C7)nc5c3F)N3CCCOCC3C[C@@H]4O)c12 (stereo partly drawn) [Example 22-5] is 79.7 nM

Lab entry: cellular pERK in Kuramochi (WT KRAS) cell-line assay, compound C#Cc1c(F)ccc2cc(O)cc(-c3nc4c5c(nc(OC[C@@]67CCCN6C[C@H](F)C7)nc5c3F)N3CCCOCC3C[C@H]4F)c12 (stereo partly drawn) [Example 22-6] , EC50 = 28.8 nM

Tested on cellular pERK in Kuramochi (WT KRAS) cell-line, the item C#Cc1c(F)c(F)cc2cc(N)cc(-c3nc4c5c(nc(OC[C@@]67CCCN6C[C@H](F)C7)nc5c3F)N3CCCOC[C@@H]3CC4)c12 [Example 23-1] showed EC50 equal to 0.95 nM
